- System: MDA-N
- experimentalProtocol: NCI tumour cell line growth inhibition, 48 h
Activity calls are given as the source filed them. Cut-off read from the data, not from the text of the source: active = GI50 up to about 1.1 µM and inactive = higher.
Write down the outcome that applies. Available outcomes: active, inactive

{"compound": "Fc1ccc(C(OCCN2CCC3CCC(C2)N3C/C=C/c2cccs2)c2ccc(F)cc2)cc1 (stereo not drawn)", "targetUnderTest": "MDA-N", "assignedCategory": "inactive"}

Assay outcome for COc1nc(N)c(/N=C/C(OC(C)=O)C(OC(C)=O)C(COC(C)=O)OC(C)=O)c(=O)n1C (stereo not drawn) : what was it?
inactive

Assay outcome for COC1CC(CC2CCC(C)C(C(C)C(=O)O)O2)OC2(OC(C)(C3CCC(C)(C4OC(C5OC(O)(CO)C(C)CC5C)CC4C)O3)CC2C)C1C (stereo not drawn) : what was it?
active

---

- System: NCI-H23
- experimentalProtocol: NCI tumour cell line growth inhibition, 48 h
Calls of active or inactive are those of the source. Cut-off read from the data, not from the text of the source: active = GI50 up to about 1.1 µM and inactive = higher.
Write down the outcome that applies. Available outcomes: YES (active), NO (inactive)

Example entries begin here.
{"compound": "c1ccc(CCN2CCN=C2Cc2ccccc2)cc1", "assignedCategory": "NO"}
{"compound": "c1ccc2[nH]c(CNc3ccc(C4C[Se]N=N4)cc3)nc2c1 (centres undefined)", "assignedCategory": "NO"}

Assay outcome for Oc1ccccc1/C=N/c1ccc(Oc2ccc(Cl)cc2)c(Cl)c1 : what was it?
NO

Assay outcome for CSc1nc(NC2OC(COC(C)=O)C(OC(C)=O)C(OC(C)=O)C2OC(C)=O)c2c(n1)OCC2=O (centres undefined) : what was it?
NO

---

- Tested on: HT-29
- experimentalProtocol: NCI tumour cell line growth inhibition, 48 h
Active and inactive are the calls of the source. No stated cut-off is given here; in the data, active = GI50 up to about 1.1 µM and inactive = higher.
Write down the outcome that applies. Available outcomes: TRUE (active), FALSE (inactive)

{"compound": "Cc1ccc(S(=O)(=O)NC(=O)C2S(=O)(=O)OCCOS2(=O)=O)cc1", "assignedCategory": "FALSE"}

Assay outcome for c1ccc2[nH]c(CNc3ccc(C4C[Se]N=N4)cc3)nc2c1 (centres undefined) : what was it?
FALSE

Assay outcome for CSc1ccsc1-c1sc(-c2cc(SC)c(-c3sc(-c4cc(SC)c(-c5sccc5SC)s4)cc3SC)s2)cc1SC : what was it?
FALSE

Assay outcome for COc1ccc2oc(=O)c(-c3csc(-c4ccccc4)n3)cc2c1 : what was it?
FALSE

---

- Test system: UO-31
- experimentalProtocol: NCI tumour cell line growth inhibition, 48 h
The source made the active and inactive calls. Rule as the data show it: active = GI50 up to about 1.1 µM and inactive = higher.
Quick reference for GI50 among some molecules

{"molecule": "O=c1[nH]nc(Cc2ccccc2)n1CCO", "valueKind": "GI50", "observed": "> 100 µM (inactive)"}
{"molecule": "O=S(=O)(O)c1ccc(/N=N/c2nc(C(F)(F)F)c(C(F)(F)F)[nH]2)cc1", "valueKind": "GI50", "observed": "34 µM (inactive)"}
{"molecule": "C[C@@H](C1CC[C@H]2[C@@H]3[C@@H]4O[C@@H]4[C@@]4(O)CC=CC(=O)[C@]4(C)[C@H]3C[C@H](O)[C@]12C)[C@H]1C[C@]2(C)O[C@]2(C)C(=O)O1 (some centres undefined)", "valueKind": "GI50", "observed": "> 100 µM (inactive)"}

Would you kindly share the measured GI50 for Cc1ncc(COP(=O)(O)O)c(/C=C2\SC(=S)NC2=O)c1O ?
> 100 µM (inactive)

---

- Tested on: SW-620
- experimentalProtocol: NCI tumour cell line growth inhibition, 48 h
Active and inactive are the calls of the source. Cut-off read from the data, not from the text of the source: active = GI50 up to about 1.1 µM and inactive = higher.
valueKind: GI50

Would you kindly share the measured GI50 for Cc1ccccc1OC(C)C(=O)NN1C(=O)CC(=O)N(c2ccc(Cl)cc2)C1=S (stereo not given) ?
36.2 µM (inactive)

Would you kindly share the measured GI50 for CCOC(=O)NC(C(C(=O)OCC)C(=O)OCC)(C(F)(F)F)C(F)(F)F ?
> 100 µM (inactive)

Would you kindly share the measured GI50 for CC(=O)SC(C[N+](=O)[O-])c1ccc2c(c1)OCO2 (stereo not given) ?
3.24 µM (inactive)

Would you kindly share the measured GI50 for c1csc(-c2ccc(-c3cccc4nsnc34)s2)c1 ?
> 100 µM (inactive)

Would you kindly share the measured GI50 for COc1nc(N)c(/N=C/C(OC(C)=O)C(OC(C)=O)C(COC(C)=O)OC(C)=O)c(=O)n1C (stereo not given) ?
> 100 µM (inactive)

Would you kindly share the measured GI50 for COC(=O)[C@@]12CCCC(=O)[C@@H]1[C@H]1CCCC[C@H]12 ?
> 100 µM (inactive)

Would you kindly share the measured GI50 for COC(=O)C1=C(O)C(C(=O)OC)[C@]2(O)[C@H](C(=O)OC)[C@H]1C[C@@H](c1ccc(C(F)(F)F)cc1)[C@H]2C(=O)OC (stereo not given in full) ?
2.76 µM (inactive)

Would you kindly share the measured GI50 for NC(=O)c1ncn2c1CNC(=O)C2 ?
> 100 µM (inactive)

Would you kindly share the measured GI50 for CC(N)Cc1ccc(F)cc1 (stereo not given) ?
> 100 µM (inactive)

Would you kindly share the measured GI50 for CC1=NN(C(=O)CC(=O)Nc2ccccc2Cl)C(=O)C1/N=N/c1ccc(C(=O)O)cc1 (stereo not given) ?
> 100 µM (inactive)

Would you kindly share the measured GI50 for COc1ccc(N2C(=O)/C(=C\c3cc(OC)c(OC)c(OC)c3)SC2c2ccccc2)cc1 (stereo not given) ?
> 100 µM (inactive)

Would you kindly share the measured GI50 for CN(C)CCCNC(=O)c1c(O)c2ccccc2[nH]c1=O ?
> 100 µM (inactive)

Would you kindly share the measured GI50 for CN1c2c(O)nc(N)nc2NCC1CCNc1ccc(C(=O)NC(CCC(=O)O)C(=O)O)cc1 (stereo not given) ?
52.4 µM (inactive)

Would you kindly share the measured GI50 for Cc1ccc(S(=O)(=O)NNC(=O)c2cc(C)c(C)cc2N)cc1 ?
> 100 µM (inactive)

Would you kindly share the measured GI50 for COc1ccc(/C=C/C(=O)C(C)(C)C)cc1OC ?
79.4 µM (inactive)

Would you kindly share the measured GI50 for CC(C)[Si]1(C(C)C)OCC2OC(n3cnc4c(N)ncnc43)C(N)C2O[Si](C(C)C)(C(C)C)O1 (stereo not given) ?
6.41 µM (inactive)

Would you kindly share the measured GI50 for O=C(NCc1ccccc1)c1c(O)nc2ccccc2c1O ?
> 100 µM (inactive)

Would you kindly share the measured GI50 for CC(=O)Oc1ccc2c(c1)c1c(=O)oc(C)nc1n2Cc1ccccc1 ?
57.9 µM (inactive)

Would you kindly share the measured GI50 for N#CC1=C(N)OC2=C(CCCc3ccccc32)C1c1ccc([N+](=O)[O-])cc1 (stereo not given) ?
13.6 µM (inactive)

Would you kindly share the measured GI50 for COc1ccc2c(c1)CC[C@@H]1C2CC[C@]2(C)C(=C=CP(=O)(O)O)CCC12 (stereo not given in full) ?
> 100 µM (inactive)

Would you kindly share the measured GI50 for CCOC(=O)c1c(OCC)[nH]c(=O)c(C(c2cccs2)c2c(O)c(C(=O)OCC)c(OCC)[nH]c2=O)c1O ?
12.1 µM (inactive)

Would you kindly share the measured GI50 for CCOC(=O)/C=C(\C(=O)OCC)n1cc(C)c(=O)n(Cc2cn(COCCOC(C)=O)nn2)c1=O ?
2.94 µM (inactive)

Would you kindly share the measured GI50 for COc1cc(OC)nc(Nc2c(C#N)c3nc4ccccc4n3c3ccccc23)n1 ?
> 100 µM (inactive)

---

- System: RXF 393
- experimentalProtocol: NCI tumour cell line growth inhibition, 48 h
Calls of active or inactive are those of the source. Rule as the data show it: active = GI50 up to about 1.1 µM and inactive = higher.
Write down the outcome that applies. Available outcomes: active, inactive

Assay outcome for N#C/C(=C1\SC(/N=N/c2ccc(Cl)cc2)C(=O)N1c1ccccc1)c1nc2ccccc2[nH]1 (stereo not given) : what was it?
inactive

---

- Tested on: NCI-H226
- experimentalProtocol: NCI tumour cell line growth inhibition, 48 h
Calls of active or inactive are those of the source. Cut-off read from the data, not from the text of the source: active = GI50 up to about 1.1 µM and inactive = higher.
Write down the outcome that applies. Available outcomes: YES = active, NO = inactive

Example entries begin here.
{"molecule": "N#C/C(=C\\c1cccc(Br)c1)c1nc2ccccc2c(=O)[nH]1", "assignedCategory": "NO"}
{"molecule": "CC(=O)Oc1ccc2c(c1)c1c(=O)oc(C)nc1n2Cc1ccccc1", "assignedCategory": "NO"}
{"molecule": "C/C(=N\\Nc1nc2ccccc2n1C)c1cnccn1", "assignedCategory": "YES"}
{"molecule": "Cc1ccc2c(O)cc(-c3ccc(F)cc3)nc2n1", "assignedCategory": "NO"}
{"molecule": "COc1cc(C(=O)CBr)c(OC)cc1C", "assignedCategory": "NO"}
{"molecule": "C1=CCC[C@@H]2CN3CCCC/C=C\\CCCC[C@H]4C[C@H](CN(CCCCCCCC1)C4)[C@H]2CC3", "assignedCategory": "NO"}

Assay outcome for CC(C)Nc1n[nH]c(=O)n1C(C)C : what was it?
NO

Assay outcome for Cc1ccc(C(=O)O/N=C2/CCC/C2=C\c2ccccc2)cc1 : what was it?
NO

Assay outcome for CC(C)CCNC(=O)c1ccc(CNC(=O)/C=C/c2csc(-c3ccccc3)n2)cc1 : what was it?
NO

Assay outcome for N#CC1=C(c2ccccc2)NN(Cc2ccccc2)C(c2ccc(Cl)cc2)CC1=O (stereo unspecified) : what was it?
NO

Assay outcome for CS/C(N)=N/c1cccc2ccccc12 : what was it?
NO

Assay outcome for CC1=NN(c2ccccc2)C(=O)/C1=C/c1ccc(O)cc1 : what was it?
NO

Assay outcome for c1ccc2c(c1)CCN1CCc3c([nH]c4ccccc34)C21 (stereo unspecified) : what was it?
NO

Assay outcome for CC1(C)OC[C@@]2([C@@H]3CC[C@@H](C3)C2(C)C)N1O : what was it?
NO

Assay outcome for COc1cc2c(cc1C1=NC(C)(C)CO1)OCO2 : what was it?
NO

These data points were gathered from ChEMBL document CHEMBL1201862.
